Data provenance: PubChem BioAssay (NCI)

# System: SK-OV-3 ovarian
# Measurement description: NCI-60 one-dose screen, 48 h (100 = growth as untreated, 0 = no growth, -100 = all killed)
# Run conditions: 10 µM
The panel holds about 83,000 compounds, 20% with a hit somewhere; the sample as a whole holds those more often.
Short version: growth at least 80% is rule met, less is rule not met.

Use the examples below as a reference point.
Compound: O=S(=O)(Nc1ccccn1)c1ccc(N=Nc2ccc(O)c3ncccc23)cc1
Assigned category: rule not met
--
Compound: NC1=NC(=O)C(c2ccccc2)(c2ccccc2)S1
Assigned category: rule met
--
Compound: CCN(CC)CCCC(C)Nc1nc(-c2ccc(OC)cc2)nc2cc(Cl)ccc12 (stereo not given)
Assigned category: rule met
--
Compound: COc1cc(/C=C2\CCCC3=C2N=C2SC=NN2C3c2cc(OC)c(OC)c(OC)c2)cc(OC)c1OC (stereo not given)
Assigned category: rule not met
--
Compound: Cn1c([N+](=O)[O-])cnc1/C=C1\Oc2ccccc2C1=O
Assigned category: rule not met

Below: the item to evaluate.
Task item: Does growth meet or surpass 80% for COc1ccc(Cl)cc1C(=O)Nc1nc2ccc(Cl)cc2s1 ?
Reply: rule met

----------
# System: ACHN renal
# Measurement description: NCI-60 one-dose screen, 48 h (100 = growth as untreated, 0 = no growth, -100 = all killed)
# Run conditions: 10 µM
This is part of a sample that, as a whole, favours compounds with a hit. Of some 83,000 tested, about 20% had one in any assay.
Quantity name: growth (%)
Please give a number only; it is taken to be in %.

Example entries and their recorded answers appear below.
Compound: Clc1ccc(/C=C2\CCCC3=C2N=C2SC=NN2C3c2ccc(Cl)cc2)cc1 (stereo not given)
Measurement units: %
growth: 103

Compound: COc1ccc(/C=C/C(=O)Nc2ccc(-c3nc4ccc(F)cc4s3)cc2)cc1
Measurement units: %
growth: 107

Task item: # lookup: growth of CCCCCC(=O)c1ccc(OCCCN2CCN(C(=O)OCC)CC2)cc1
Reply: 96.1

Task item: Input COc1ccc(-c2nc3sc(-c4ccccc4)c(-c4ccccc4)n3c2/C=C/C(=O)c2ccccn2)cc1
Reply: 66.2

Task item: Input Clc1cccc(-c2nc(-c3cccs3)no2)c1
Reply: 96.3

Task item: Input Cc1cc(O)c(C(C)(C)C)cc1Sc1cc(C(C)(C)C)c(O)cc1C
Reply: 60.7

----------
# System: KM12 colon
# Measurement description: NCI-60 one-dose screen, 48 h (100 = growth as untreated, 0 = no growth, -100 = all killed)
# Run conditions: 10 µM
About 83,000 compounds went through this panel and 20% of them were active in at least one assay; those are over-represented in the sample as a whole.
Quantity name: growth (%)
Please give a number only; it is taken to be in %.

Example entries and their recorded answers appear below.
Molecule: Cc1cc2c(C)c3cc(C)c(N)cc3nc2cc1N
growth, %: 9.44
//
Molecule: CC1CN(Cc2ccccc2)C(=O)NC1=O (configuration not stated)
growth, %: 113
//
Molecule: CCCC(F)C(=O)O (configuration not stated)
growth, %: 106
//
Molecule: COc1ccc(-c2nc3ccccn3c2-c2nnc(-c3cc(OC)c(OC)c(OC)c3)o2)cc1
growth, %: 65

Task item: # lookup: growth of O=C(Nc1nc2ccc(F)cc2s1)c1cc(-c2ccc(F)cc2)n2nc(-c3ccccc3)cc2n1
Reply: 65.9

Task item: Input Nc1nccc(Nc2ccccc2)n1
Reply: 101

Task item: Input CCCCCCN(CCCCCC)CC(O)c1ccc2c3c(cccc13)CC2 (configuration not stated)
Reply: 58

Task item: Input COc1ccc2c(c1OC)O/C(=C\c1ncc([N+](=O)[O-])n1C)C2=O
Reply: 43.1
